# Artemin Binding Response (nm) per entry
Biological target: T1, mArtemin-MMH (mouse)
T1 construct: also called msArtemin-MMH; msARTN.mmh
T1 chain: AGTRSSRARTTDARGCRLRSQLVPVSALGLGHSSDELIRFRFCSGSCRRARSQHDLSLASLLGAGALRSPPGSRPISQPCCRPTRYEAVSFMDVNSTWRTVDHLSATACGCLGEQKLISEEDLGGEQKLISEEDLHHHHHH
Experiment: BLI (Octet HTX), mAb captured on AHC tips, artemin at 15 nM, 25 C
Remember to put the unit after the number in your answer.

INSERT INTO measurements (binder, result) VALUES
  ('H4H33349P (antibody, human IgG4 S228P, kappa, V domains shown, Fully human antibody; also called Artemin mAb; anti-ARTN antibody) VH: QVQLVESGGGVVQPGRSLRLSCEASGFTFSDYDLHWVRQAPGKGLEWVAFISNDGSNEYYPKSVKGRFSISRDNSKNTLYLQMNSLRAEDTAVYHCTKERDYYYDSSGSLDYWGQGTLVTVSS VL: DIQMTQSPSSLSASVGDRVTITCRASQTINNYLNWYQQKPGKAPKLLIYTTSGLQSGVPSRFSGRGSGTDFTLAISSLQPEDFATYYCQQSYHSPFTFGPGTKVDIKR', '0.11 nm');

### Prompt Give its Artemin Binding Response (nm) value. Item: H4H33331P (antibody, human IgG4 S228P, kappa, V domains shown, Fully human antibody (human variable and constant domains) from a VELOCIMMUNE mouse; also called Artemin mAb; anti-ARTN antibody) VH: EVQLVESGGDLVQPGGSLKLSCAASGFTFSGSAMHWVRQASGKGLEWVGRIRNKVHRYATEYGASVKGRFTISRDDSKNTAYLQMNSLKIEDTAVYYCVVVVPGSIEAFDIWGQGTMVTVSS VL: DIQMTQSPSSLSASVGDRVTITCRASQSISTYLNWYQQKPGKAPNLLIYAASTLESGVPSRFSGSGSGTDFTLTISSLQPEDFEIYYCQQSYNIPWTFGQGTKVEIKR
### Response 0.08 nm

### Prompt Which value of Artemin Binding Response (nm) has been reported for H4H33336P (antibody, human IgG4 S228P, kappa, V domains shown, Fully human antibody; also called Artemin mAb; anti-ARTN antibody) VH: QVQLVESGGGVVQPGRSLRLSCVASGFILSHYGMHWVRQAPGKGLEWVAVIWFDGTNKYYADSVKGRFTVSRDNSKNTLYMQMNSLRAEDTAVYYCARDPPPARRGNYNGMDVWGQGTTVTVSS VL: DIQMTQSPSSLSASVGDRVTITCRASQDIRNDLGWYQQKPGKAPKRLIFGASSLQSGVPLRFSGSGSGTEFTLTINNLQPEDFATFYCLQDNSYPWTFGQGTKVEIKR in the records?
### Response 0.01 nm
